# target or test system: JAK1 (Homo sapiens)
# Sequence (P23458 whole entry): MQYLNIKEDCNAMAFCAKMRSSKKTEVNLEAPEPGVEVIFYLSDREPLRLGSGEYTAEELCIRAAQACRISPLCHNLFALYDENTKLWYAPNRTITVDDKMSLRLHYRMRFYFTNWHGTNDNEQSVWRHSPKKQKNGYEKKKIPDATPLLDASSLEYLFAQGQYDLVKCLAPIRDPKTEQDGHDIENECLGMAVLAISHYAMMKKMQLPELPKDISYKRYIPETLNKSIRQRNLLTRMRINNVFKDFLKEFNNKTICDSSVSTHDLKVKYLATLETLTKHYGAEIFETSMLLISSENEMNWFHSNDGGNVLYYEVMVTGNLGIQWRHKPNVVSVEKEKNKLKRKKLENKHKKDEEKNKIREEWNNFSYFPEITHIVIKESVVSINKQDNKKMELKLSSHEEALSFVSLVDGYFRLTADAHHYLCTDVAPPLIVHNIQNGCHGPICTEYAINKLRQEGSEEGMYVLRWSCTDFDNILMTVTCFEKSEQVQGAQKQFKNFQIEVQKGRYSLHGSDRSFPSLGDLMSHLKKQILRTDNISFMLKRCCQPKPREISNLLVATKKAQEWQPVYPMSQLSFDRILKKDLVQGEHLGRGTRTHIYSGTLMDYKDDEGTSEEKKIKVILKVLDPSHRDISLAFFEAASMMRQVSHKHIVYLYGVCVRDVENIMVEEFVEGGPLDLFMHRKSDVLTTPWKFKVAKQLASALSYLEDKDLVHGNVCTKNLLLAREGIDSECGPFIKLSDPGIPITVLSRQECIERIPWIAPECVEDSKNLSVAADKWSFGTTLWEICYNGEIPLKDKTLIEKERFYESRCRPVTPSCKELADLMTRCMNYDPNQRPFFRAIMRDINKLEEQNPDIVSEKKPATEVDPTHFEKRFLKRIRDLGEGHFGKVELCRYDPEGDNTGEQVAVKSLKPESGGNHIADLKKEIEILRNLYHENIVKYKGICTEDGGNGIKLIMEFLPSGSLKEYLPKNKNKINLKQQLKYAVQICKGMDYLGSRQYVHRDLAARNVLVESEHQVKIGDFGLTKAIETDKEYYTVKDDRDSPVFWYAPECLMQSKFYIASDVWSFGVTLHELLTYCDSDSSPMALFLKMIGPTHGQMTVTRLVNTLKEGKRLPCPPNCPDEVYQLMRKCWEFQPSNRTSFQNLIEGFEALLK
# experiment summary: NanoBRET tracer displacement in live HEK293T cells
measurement type: IC50

compound	IC50
Cc1ccc2c(c1)n(CC(N)=O)c(=O)n2-c1cc(-c2cc(Cl)ccc2F)ncc1C [compound 16, THAI14]	> 20 µM

Task: Return the recorded IC50 value; entry: Cc1cnc(-c2cc(Cl)ccc2F)cc1-n1c(=O)n(CC(N)=O)c2ccccc21 [compound 15, THAI11]
Result: > 20 µM

----------
# target or test system: UniProtKB Q08345
# Sequence (Q08345 19-913): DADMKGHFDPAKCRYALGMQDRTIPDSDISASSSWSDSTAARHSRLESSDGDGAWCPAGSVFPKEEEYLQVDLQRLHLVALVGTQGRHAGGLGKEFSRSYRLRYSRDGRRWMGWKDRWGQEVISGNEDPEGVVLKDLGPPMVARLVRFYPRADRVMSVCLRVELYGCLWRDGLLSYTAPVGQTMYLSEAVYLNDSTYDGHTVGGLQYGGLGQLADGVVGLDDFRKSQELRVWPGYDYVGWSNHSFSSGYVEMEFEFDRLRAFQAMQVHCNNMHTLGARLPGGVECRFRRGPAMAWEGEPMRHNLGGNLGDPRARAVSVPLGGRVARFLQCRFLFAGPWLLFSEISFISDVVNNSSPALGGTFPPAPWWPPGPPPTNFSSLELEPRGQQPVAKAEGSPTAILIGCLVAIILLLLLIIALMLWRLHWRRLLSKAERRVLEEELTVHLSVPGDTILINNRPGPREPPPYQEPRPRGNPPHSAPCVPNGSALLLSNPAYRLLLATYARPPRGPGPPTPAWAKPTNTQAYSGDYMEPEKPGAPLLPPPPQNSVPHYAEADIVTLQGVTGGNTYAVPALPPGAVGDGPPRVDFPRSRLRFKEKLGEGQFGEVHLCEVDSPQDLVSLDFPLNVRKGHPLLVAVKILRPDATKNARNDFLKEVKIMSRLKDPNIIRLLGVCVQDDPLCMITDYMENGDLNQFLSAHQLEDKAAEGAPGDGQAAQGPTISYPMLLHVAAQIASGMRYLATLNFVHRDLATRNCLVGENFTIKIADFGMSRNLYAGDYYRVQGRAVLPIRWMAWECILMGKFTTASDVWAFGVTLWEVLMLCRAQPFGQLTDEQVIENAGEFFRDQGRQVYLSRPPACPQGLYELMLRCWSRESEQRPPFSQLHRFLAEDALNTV
# experiment summary: NanoBRET tracer displacement in live HEK293T cells
measurement type: IC50

Cc1cnc(-c2cc(Cl)ccc2F)cc1-n1c(=O)n(CC(N)=O)c2ccccc21 > 20 µM

Now for another entry.
Task: Return the recorded IC50 value; entry: `Cc1ccc2c(c1)n(CC(N)=O)c(=O)n2-c1cc(-c2cc(Cl)ccc2F)ncc1C`
Result: > 20 µM

----------
# target or test system: MAPK9 (Homo sapiens, UniProt P45984)
# Sequence (P45984 whole entry): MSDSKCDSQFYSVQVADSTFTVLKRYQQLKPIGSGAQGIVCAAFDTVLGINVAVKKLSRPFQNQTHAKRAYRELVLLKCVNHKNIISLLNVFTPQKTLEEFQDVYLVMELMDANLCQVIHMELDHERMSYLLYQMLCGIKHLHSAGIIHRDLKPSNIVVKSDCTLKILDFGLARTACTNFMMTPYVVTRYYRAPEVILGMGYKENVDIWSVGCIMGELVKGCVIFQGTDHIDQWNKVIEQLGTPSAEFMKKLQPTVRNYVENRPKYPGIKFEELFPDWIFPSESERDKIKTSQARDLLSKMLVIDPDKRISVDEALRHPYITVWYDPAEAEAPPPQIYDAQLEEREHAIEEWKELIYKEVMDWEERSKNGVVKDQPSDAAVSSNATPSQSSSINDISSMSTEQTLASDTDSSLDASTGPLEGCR
# experiment summary: NanoBRET tracer displacement in live HEK293T cells
pIC50: −log10 of the molar value.
measurement type: pIC50

Cc1ccc2c(c1)n(CC(N)=O)c(=O)n2-c1cc(-c2cc(Cl)ccc2F)ncc1C < 4.70

Now for another entry.
Task: Return the recorded pIC50 value; entry: `Cc1cnc(-c2cc(Cl)ccc2F)cc1-n1c(=O)n(CC(N)=O)c2ccccc21`
Result: < 4.70

----------
# target or test system: UniProtKB P42336
# Sequence (P42336 whole entry): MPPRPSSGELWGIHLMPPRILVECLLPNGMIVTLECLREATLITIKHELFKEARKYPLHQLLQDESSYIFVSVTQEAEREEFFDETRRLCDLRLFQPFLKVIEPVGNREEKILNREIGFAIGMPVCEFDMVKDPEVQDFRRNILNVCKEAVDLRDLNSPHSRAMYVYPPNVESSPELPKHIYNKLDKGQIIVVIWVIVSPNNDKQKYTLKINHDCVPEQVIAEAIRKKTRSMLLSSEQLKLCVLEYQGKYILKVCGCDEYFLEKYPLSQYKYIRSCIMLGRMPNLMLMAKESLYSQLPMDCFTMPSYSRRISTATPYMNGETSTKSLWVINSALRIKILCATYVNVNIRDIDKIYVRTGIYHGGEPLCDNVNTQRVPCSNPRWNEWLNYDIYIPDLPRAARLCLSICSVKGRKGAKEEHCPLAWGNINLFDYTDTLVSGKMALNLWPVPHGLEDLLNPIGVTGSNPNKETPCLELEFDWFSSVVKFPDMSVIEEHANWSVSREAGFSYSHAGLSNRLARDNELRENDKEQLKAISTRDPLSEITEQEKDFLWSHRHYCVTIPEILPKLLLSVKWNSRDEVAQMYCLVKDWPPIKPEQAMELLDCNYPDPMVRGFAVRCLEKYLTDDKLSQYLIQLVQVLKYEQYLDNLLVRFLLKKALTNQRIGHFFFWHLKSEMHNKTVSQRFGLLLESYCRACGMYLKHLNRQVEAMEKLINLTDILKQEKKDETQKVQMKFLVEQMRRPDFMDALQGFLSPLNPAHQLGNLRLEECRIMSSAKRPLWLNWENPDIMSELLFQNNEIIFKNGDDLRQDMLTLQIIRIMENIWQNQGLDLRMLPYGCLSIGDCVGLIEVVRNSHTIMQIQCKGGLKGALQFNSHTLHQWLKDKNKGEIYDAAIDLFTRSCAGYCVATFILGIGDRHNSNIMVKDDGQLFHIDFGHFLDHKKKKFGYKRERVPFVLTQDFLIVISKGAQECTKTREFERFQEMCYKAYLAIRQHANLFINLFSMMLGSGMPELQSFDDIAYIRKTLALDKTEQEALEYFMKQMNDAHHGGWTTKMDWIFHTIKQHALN
# experiment summary: NanoBRET tracer displacement in live HEK293T cells
pIC50: −log10 of the molar value.
measurement type: pIC50

compound	target or test system	measurement type	result
Cc1ccc2c(c1)n(CC(N)=O)c(=O)n2-c1cc(-c2cc(Cl)ccc2F)ncc1C [compound 16, THAI14]	UniProtKB P42336	pIC50	< 4.70

Now for another entry.
Task: Return the recorded pIC50 value; entry: Cc1cnc(-c2cc(Cl)ccc2F)cc1-n1c(=O)n(CC(N)=O)c2ccccc21 [compound 15, THAI11]
Result: < 4.70

From: paper doi:10.1101/2020.01.23.916502v1
